Tested on: MS2 coat protein
METHOD_SUMMARY: apparent KD of MS2 coat protein; designed switch direction (-1 OFF switch, 1 ON switch): -1; higher = weaker reporter binding
REPORTED_CONDITIONS: Eterna round: R95; input ligand: none
Output YES for apparent KD of MS2 coat protein not less than 100 nM; output NO otherwise.

Look over these answered cases.
RECORD_SEQUENCE	CLASS_ASSIGNMENT
CCGGCUUAGCAGGAUAUAGGAGUCGAUAGACACCUAGAAGGGCUAACAUGAGGAUCACCCAUGUGUCCUACCGG [Fiskers Ex 6 - 100] (puzzle: Exclusion 6)	NO
AUAAGCUUUGAGAUCCUUAACAUGAGGAUCACCCAUGUUCGUCUUAUGAUGGUCUGAUCCCUGAGGAUCGGACCGUU [JL-sv1-2.02 Brourd Mod] (puzzle: Sensor v3, turn-off variant 1)	YES
UGUGCGUAUGUGAGGAUAUGCUGGUCCUUGGAUCGGCAGAAGGCACAUGAGGAUCACCCAUGUGGUGUCGUACG [salish99_Bmod_ex4_079] (puzzle: Brourd's mod of Exclusion 4)	YES

IN: Test whether the sequence UAUUAACAAGCAAGAUCCUACAUGAGGAUCACCCAUGUGCUCGUCUUAUAAGGUACUGUGACGAAAGUCACGGUACC [Sensor 3, v1 - 70] (puzzle: Sensor v3, turn-off variant 1) records apparent KD of MS2 coat protein of 100 nM or higher.
OUT: YES

IN: Test whether the sequence GAAAAGGUAGGAUAUACGAAAAAAAAGGGUAGAGAAAAAACACAUGAGGAUCACCCAUGUAGAAGGACCAAAAG [salish99_ex2_r3_023] (puzzle: Exclusion 2) records apparent KD of MS2 coat protein of 100 nM or higher.
OUT: NO
